Measured values drawn from patent US8293790B2 for this set.

- Tested on: P. acnes
- protocol-text: Agar dilution method: growth of P. acnes and MIC, compounds tested singly
- Type: cell-based, Propionibacterium acnes
- Set-up: key: +++: confluent growth (comparable to control); ++: less confluent growth; +: marked reduction in growth to multiple tiny, single colonies; −: no growth present
- test-context: compound at 0.4 mg/mL in agar
- Description: Several compounds including fatty acids such as DGLA, 15-OHEPA, and 15-HETrE were tested to determine their capacity to inhibit the growth of P. acnes. In an exemplary method, an agar dilution method was used to determine the minimum inhibitory concentration (MIC) of each tested compound. […] The growth of P. acnes in the presence of nicotinamide, benzoyl peroxide, adapalene, metronidazole, DGLA, 15-OHEPA, and 15-HETrE was determined with varying concentrations of the compound (see, Table 2). […]

compound	Growth Index (+++, ++, +, −) Plate 2
Cc1ncc([N+](=O)[O-])n1CCO	+++
O=C(OOC(=O)c1ccccc1)c1ccccc1 [Benzoyl Peroxide, benzoyl peroxide]	+++
COc1ccc(-c2ccc3cc(C(=O)O)ccc3c2)cc1C12CC3CC(CC(C3)C1)C2	+++
CCCCC/C=C\C/C=C\C/C=C\CCCCCCC(=O)O [DGLA, cis-8,11,14-eicosatrienoic acid]	+++

---

- Test system: P. acnes
- protocol-text: Agar dilution method: growth of P. acnes and MIC, compounds tested singly
- Type: cell-based, Propionibacterium acnes
- Set-up: key: +++: confluent growth (comparable to control); ++: less confluent growth; +: marked reduction in growth to multiple tiny, single colonies; −: no growth present
- test-context: compound at 0.6 mg/mL in agar

compound	system-under-test	Growth Index (+++, ++, +, −) Plate 3
COc1ccc(-c2ccc3cc(C(=O)O)ccc3c2)cc1C12CC3CC(CC(C3)C1)C2	P. acnes	+++
O=C(OOC(=O)c1ccccc1)c1ccccc1 [Benzoyl Peroxide, benzoyl peroxide]	P. acnes	++
CCCCC/C=C\C/C=C\C/C=C\CCCCCCC(=O)O [DGLA, cis-8,11,14-eicosatrienoic acid]	P. acnes	++
Cc1ncc([N+](=O)[O-])n1CCO	P. acnes	+++

---

- Tested on: P. acnes
- protocol-text: Agar dilution method: growth of P. acnes and MIC, fatty acid compounds in combination with other compounds
- Type: cell-based, Propionibacterium acnes
- test-context: 0.1 mg/mL 15-OHEPA spike, itself an inhibitory concentration
Reported values of MIC (mg/mL) with 0.1 mg/mL 15-OHEPA spike for individual entries
experimental-readout: MIC (mg/mL) with 0.1 mg/mL 15-OHEPA spike

molecule	reported
NC(=O)c1cccnc1 [Nicotinamide]	<1 mg/mL
O=C(OOC(=O)c1ccccc1)c1ccccc1 [Benzoyl Peroxide, benzoyl peroxide]	<0.2 mg/mL
Cc1ncc([N+](=O)[O-])n1CCO [Metronidazole]	<0.2 mg/mL
COc1ccc(-c2ccc3cc(C(=O)O)ccc3c2)cc1C12CC3CC(CC(C3)C1)C2 [Adapalene]	<0.2 mg/mL
